Assignment: determine reported log10 of IC50 for the given compounds.
assayed target: TF-VIIa (Homo sapiens, UniProt P08709)
Construct: 2nM recombinant human factor VIIa; purchased American Diagnostica, Greenwich CT; host or cells: soluble TF made in house in E. coli
Sequence (P08709 213-466 limits assumed): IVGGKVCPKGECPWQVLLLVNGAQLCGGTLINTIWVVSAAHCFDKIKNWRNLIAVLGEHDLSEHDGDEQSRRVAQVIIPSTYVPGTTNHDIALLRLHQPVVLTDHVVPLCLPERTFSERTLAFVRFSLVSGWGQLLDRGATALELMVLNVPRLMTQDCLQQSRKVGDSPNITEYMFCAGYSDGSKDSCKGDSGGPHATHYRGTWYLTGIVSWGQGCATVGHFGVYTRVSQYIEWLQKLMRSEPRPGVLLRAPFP
Sequence (P08709 61-212 limits assumed): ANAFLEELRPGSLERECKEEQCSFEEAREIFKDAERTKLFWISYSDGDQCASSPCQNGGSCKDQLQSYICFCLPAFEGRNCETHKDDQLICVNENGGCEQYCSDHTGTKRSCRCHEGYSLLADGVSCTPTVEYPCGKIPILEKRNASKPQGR
Sequence (P13726 33-251 partner limits assumed): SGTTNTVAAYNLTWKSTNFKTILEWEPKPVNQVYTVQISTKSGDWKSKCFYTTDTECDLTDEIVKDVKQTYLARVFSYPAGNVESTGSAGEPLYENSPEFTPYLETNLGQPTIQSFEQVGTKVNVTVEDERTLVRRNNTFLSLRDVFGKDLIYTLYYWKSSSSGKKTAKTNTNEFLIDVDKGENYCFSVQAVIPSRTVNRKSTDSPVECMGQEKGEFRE
assay remarks: TF-VIIa Assay
Format: biochemical
condition parameters: read-out: IC50 or % Inhibition TF-VIIa (30 µM); cells given as a plain number (IC50)
Scale: decimal log of IC50, IC50 in µM.

Here are 5 compounds together with their reported answers.
* CCc1c(Cl)nc(NCCc2ccc(Cl)cc2)c(=O)n1CC(=O)NCc1ccc(C(=N)N)cc1 | 1.09
* CCCNc1nc(Cl)c(-c2cccc(N)c2)n(CC(=O)NCc2ccc(C(=N)N)cc2)c1=O | -1.22
* N=C(N)c1ccc(CNC(=O)Cn2c(-c3ccccc3)c(Cl)nc(NCc3ccc(Br)cc3)c2=O)cc1 | 1.13
* N=C(N)c1ccc(CNC(=O)Cn2c(-c3cccc(Cl)c3)c(Cl)nc(NCCc3cccc(Cl)c3)c2=O)cc1 | -0.08
* Cc1c(Cl)nc(NCCc2ccncc2)c(=O)n1CC(=O)NCc1ccc(C(=N)N)cc1 | 0.94

Report log10 of IC50 for every entry below.
1. C[C@H](Nc1nc(Cl)c(-c2ccccc2)n(CC(=O)NCc2ccc(C(=N)N)cc2)c1=O)c1ccccc1
2. COc1cccc(CNc2nc(Cl)c(-c3ccccc3)n(CC(=O)NCc3ccc(C(=N)N)cc3)c2=O)c1OC
3. N=C(N)c1ccc(CNC(=O)Cn2c(-c3cccc(N)c3)c(Cl)nc(NCC(F)(F)F)c2=O)cc1
4. N=C(N)c1ccc(CNC(=O)Cn2c(-c3ccc4c(c3)OCO4)c(Cl)nc(NCCc3cccnc3)c2=O)cc1
5. N=C(N)c1ccc(CNC(=O)Cn2c(-c3ccccc3F)c(Cl)nc(NCc3ccccc3)c2=O)cc1

[0.93, 1.28, -1.52, 1.20, 0.63]
